Hey, just so you know, these numbers are from ChEMBL document CHEMBL3885881.

Organism: Rattus norvegicus
Test: DrugMatrix - Regimen: Daily Repeat
Assay type: toxicity, organism-based, Sprague-Dawley
Design: regimen Daily Repeat, gender Male, age 6-8 weeks
Conditions: in vivo, po, 0 mg/kg, 72 h, tissue Blood, route oral GAVAGE, dose level Control, time 3 day, vehicle 100 % WATER
Experimental endpoint: ABSOLUTE LYMPHOCYTE (CELLS/uL)
Field format: number, assumed CELLS/uL, no unit text.

Compound: Clc1cccc(Cl)c1N=C1NCCN1
Unit abbrev: CELLS/uL
ABSOLUTE LYMPHOCYTE: 13105

Compound: COc1cc2nc(N3CCN(C(=O)C4COc5ccccc5O4)CC3)nc(N)c2cc1OC (stereo not given)
Unit abbrev: CELLS/uL
ABSOLUTE LYMPHOCYTE: 12090.17

Compound: CNNCc1ccc(C(=O)NC(C)C)cc1
Unit abbrev: CELLS/uL
ABSOLUTE LYMPHOCYTE: 7802.17

Record request: ABSOLUTE LYMPHOCYTE value, item Cn1cc[nH]c1=S
8482.5

Which ABSOLUTE LYMPHOCYTE is reported for this compound? NCCCCCC(=O)O
13599.5
